Every entry's value here was drawn from patent US20240166737A1.

Overview of reported Kd across a group of binders:
- target: T1, 14 AA stub (a.a. 290-303 of SEQ ID NO: 247) (human)
- T1 peptide: GYLVLDLSMQEALS
- experiment-description: SPR, mAb captured, peptide injected
Quick reminder: number only, in nM, skip the unit.

(Q) Kd lookup needed for MSNB71 (antibody, V domains shown, mAb from Ablexis mouse; also called MSNB71.004) VH: QVQLQQSGPGLVMSSQTLSLTCAISGDSVSSSSVAWNWIRQSPSRGLQWLGRTYFRSKWYYDYAVSVKSRITINPDTSKNQFSLQLNSVTPEDTAVYYCSRGIVGALDYWGQGTLVTVSS VL: DIVMTQSPLSLPVTPGEPASISCRSSQSLLFTNGYDSLDWYLQKPGQSPQLLIYLVSNRASGVPDRFSGSGSGTEFTLKISRVEADDVGVYFCMQGIRTPFTFGPGTKLEIK , thanks.
(A) 0.364

(Q) Kd lookup needed for MSLNB569 (antibody, V domains shown, mAb; also called MSLNB569.001; MSNB569) VH: QVQLQQSGPGLVKPSQTLSLTCAISGDSVSSTRAAWNWIRQSPSRGLEWLGRTYYRSKWYNDYTVSVKSRITINPDTSKNQFSLHLNSVTPEDSAVYFCARGNVGRVDFWGQGTLVTVSS VL: EIVMTQSPLSLPVTPGEPASISCRSSQSLLHSDGYNYLDWYLQKPGQSPQLLIYLGSNRASGVPDRFSGSGSDTDFTLKISRVEAEDVGVYYCMQGLRTPLTFGPGTKVDIK , thanks.
(A) 1.99

(Q) Kd lookup needed for MSLNB591 (antibody, V domains shown, mAb; also called MSNB591) VH: QVQLQQSGPGLVKPSQTLSLTCGISGDSVSSSSVAWNWIRQSPSRGLEWLGRTYYRSKWYNDYAISVRSRVTINPDTSKNQFSLQLNSVTPEDTAVYYCSRGVVGALDYWGQGTLVTVSS VL: DIVMTQSPLSLTVTPGEPASISCRSSQSLLFTNGYNSLDWYLQKPGQSPQFLIYLVSNRASGVPDRFSGSGSGTDFTLKISRVEAEDVGVYYCMQALRTPYTFGQGTKVDIK , thanks.
(A) 0.563
